Test system: HOP-62 NSCLC
Experiment: NCI-60 one-dose screen, 48 h
Settings: 10 µM unless noted
Compounds without any hit were thinned out: in the full panel of roughly 83,000, 20% have a hit. The source made the active and inactive calls. Rule for the calls: active = growth percent below 10; inactive = the rest.
Classes used: active, inactive

compound | class_label
CC1(C)CC(=O)c2c(ccc(C(=O)C[C@H](N)CO)c2N)O1 | inactive
Cc1c2c(cn1Cc1ccccc1)CCc1cn[nH]c1-2 | inactive
COc1cc2c(=O)n(CCCn3ccnc3)c3c4cc5c(cc4ccc3c2cc1OC)OCO5 | inactive
O=C(CC1Sc2ccccc2NC1=O)NNc1ccc(F)cc1 (stereo unspecified) | inactive
C=CCO[C@H]1CO[C@H]2[C@@H]1OC[C@@H]2Oc1ccc(Nc2ccnc(Nc3ccc(O[C@H]4CO[C@H]5[C@@H]4OC[C@@H]5OCC=C)c(Cl)c3)n2)cc1Cl | active
OC(c1cccc(OCc2ccccc2)c1)c1nnc(-c2ccccc2)o1 (stereo unspecified) | inactive
CN(C)c1ccc(/C=C/c2c(F)cccc2F)cc1 | inactive
CCOC(=O)c1ccc(-c2ccc3cc(OC)ccc3c2)nc1C | inactive
CCNCCNc1cc(-c2ccc(C#N)cc2)c(C#N)c2nc3ccccc3n12 | inactive
Nc1c(C(=O)c2ccccc2)nnc2ncnn12 | inactive
O=C1C(Cl)C(c2ccccc2Cl)N1n1cnnc1 (stereo unspecified) | inactive

###

Test system: MALME-3M melanoma
Assay: NCI-60 one-dose screen, 48 h (100 = growth as untreated, 0 = no growth, -100 = all killed)
Conditions: 10 µM unless noted
This is part of a sample that, as a whole, favours compounds with a hit. Of some 83,000 tested, about 20% had one in any assay.
Returns one of Y or N; Y when growth is >= 70%.

smiles_repr | target_system | class_label
Cc1ccc(C)c2c1C(=O)OC2=O | MALME-3M melanoma | Y
Clc1ccc(-c2nnc(-c3ccco3)o2)cc1 | MALME-3M melanoma | Y
Nc1ccc(CCCCc2ccccc2)c(Cl)c1 | MALME-3M melanoma | Y
COc1cc(C(=O)/C=C/c2c(C(F)(F)F)nc3ccccn23)cc(OC)c1OC | MALME-3M melanoma | N
Cc1cccc(-c2cc(O)c(C(=O)N3CCOCC3)s2)c1 | MALME-3M melanoma | N
CC(C)(C)c1ccc(C(=O)Nc2sc3c(c2C(N)=O)CCC(=O)C3)cc1 | MALME-3M melanoma | N
CCCCCCCCc1cc[n+](CC(=O)c2ccc(Br)cc2)cc1 | MALME-3M melanoma | N
N#Cc1cccc(-c2nc3ccccn3c2NCCN2CCOCC2)c1 | MALME-3M melanoma | Y
Cc1c2c(cn1Cc1ccccc1)CCc1cn(C)nc1-2 | MALME-3M melanoma | Y
Cc1cc(Cl)nc(N(CCCNc2ccnc3cc(Cl)ccc23)Cc2ccccn2)n1 | MALME-3M melanoma | Y
Cc1cc(Cc2cc(C)cc(C(C)(C)C)c2O)c(O)c(C(C)(C)C)c1 | MALME-3M melanoma | N
COc1ccc(-n2ncn(CCCCCCn3cnn(-c4ccc(OC)cc4)c3=O)c2=O)cc1 | MALME-3M melanoma | Y
CN1CCN(C2=C(Cl)C(=O)c3ccccc3C2=O)CC1 | MALME-3M melanoma | N

###

System: NCI-H522 lung
Assay: NCI-60 one-dose screen, 48 h
Settings: 10 µM unless noted
About 83,000 compounds went through this panel and 20% of them were active in at least one assay; those are over-represented in the sample as a whole. Active and inactive are the calls of the source. Rule for the calls: active = growth percent below 10; inactive = the rest.
Classes used: active, inactive

compound | target_system | class_label
O=C1CSC(c2ccccc2)N1c1ccccc1 (configuration not stated) | NCI-H522 lung | inactive
Nc1ccc(-c2cc3c(Nc4ccc(OCc5cccc(F)c5)c(Cl)c4)ncnc3s2)cc1 | NCI-H522 lung | inactive
C[C@@H](C[C@H](CCOCc1cccnc1)c1ccccc1)c1cc2ccccc2o1 | NCI-H522 lung | inactive
CN(C)CCn1cc(-c2ccc3c(Nc4ccc(CC(=O)Nc5cccc(F)c5)cc4)ncnc3c2)cn1 | NCI-H522 lung | active
Cc1c(C(=O)O[C@H]2[C@@H]3[C@H](C)CC[C@H]3[C@]3(C)O[C@@]2(C2CCCCC2)C[C@H]3OC(=O)CO)ccc2ccccc12 | NCI-H522 lung | inactive
COc1ccc(C2=NC(=O)NC2c2ccc(OC)cc2)cc1 (configuration not stated) | NCI-H522 lung | inactive
NC(N)=N/N=C/CO | NCI-H522 lung | inactive
COc1c(C)cnc(CSc2nc(-c3ccc(C)cc3)cn2-c2ccc(Cl)cc2)c1C | NCI-H522 lung | inactive
COc1cc(-c2cc(-c3ccc(Nc4nc(Nc5ccccc5)nc(Nc5ccc(Cl)cc5)n4)cc3)nc(N)n2)cc(OC)c1OC | NCI-H522 lung | inactive
COC1(CC[C@@H](C)COC2OC(CO)C(O)C(O)C2O)O[C@H]2C[C@H]3[C@@H]4CC=C5C[C@@H](OC6OC(CO)C(OC7OC(C)C(O)C(O)C7O)C(O)C6OC6OC(C)C(O)C(O)C6O)CC[C@]5(C)[C@H]4CC[C@]3(C)[C@H]2[C@@H]1C (some centres not stated) | NCI-H522 lung | active
C=C(C=O)C1CCC2(C(=O)O)CCC3(C)C(CCC4C5(C)CCC(O)C(C)(C)C5CCC43C)C12 (configuration not stated) | NCI-H522 lung | inactive
Clc1ccc(-c2cn(-c3ccccc3)c(-c3ccccc3)n2)cc1 | NCI-H522 lung | inactive
CCNCCNc1cc(-c2cccc(C(F)(F)F)c2)c(C#N)c2nc3ccccc3n12 | NCI-H522 lung | active
CCCCCCCCn1cc(C2=C(c3coc4ccc(OC)cc34)C(=O)NC2=O)c2ccccc21 | NCI-H522 lung | inactive
CNC(=O)c1c(NC(=O)c2ccc(C(C)(C)C)cc2)sc2c1CCC(=O)C2 | NCI-H522 lung | active
Cc1cc(-c2ccc(N(C)C)cc2)c2sc(=O)[nH]c2n1 | NCI-H522 lung | inactive
CCCNCC(=O)Nc1ccc(C(=O)OC(C)(C)CC)cc1 | NCI-H522 lung | inactive

Data provenance is PubChem BioAssay (NCI).
